target: T1, human CD3ε on T cells (Jurkat T cell line; CD4+ and CD8+ T cells from healthy human donors) (human, UniProt P07766 23-207); test: FACS on CD4+ T cells from PBMCs of healthy donors, antibody at 0.1 µg/ml
T1 construct: whole, on cells
T1 sequence (P07766 23-207): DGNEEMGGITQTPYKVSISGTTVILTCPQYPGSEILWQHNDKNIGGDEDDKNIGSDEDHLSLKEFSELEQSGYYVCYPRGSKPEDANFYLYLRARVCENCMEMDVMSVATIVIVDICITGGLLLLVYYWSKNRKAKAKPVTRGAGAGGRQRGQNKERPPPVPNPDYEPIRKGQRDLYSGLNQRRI
MFI on CD4+ T cells: recorded values
quantity_name: MFI on CD4+ T cells (MFI)

1. IgG 1D8 (antibody, V domains shown, also called L3sp34-G1-1-R2-P1_D8) VH: EVQLVESGGGLVQPGGSLKLSCAASGFTFNTYAMNWVRQAPGKGLEWVGRIRSKYNNYATYYADSVKDRFTISRDDSKNTAYLQMNSLKTEDTAVYYCVRHGNFGNSYVSWFAYWGQGTLVTVSS VL: QTVVTQEPSLTVSPGGTVTLTCRSSTGAVTTSNYANWFQQKPGQAPRGLIGGTNKRAPGTPARFSGSLLGGKAALTLSGAQPEDEAEYYCALWYDGTWVFGGGTKLTVL
286
2. IgG 1A11 (antibody, V domains shown, also called L3sp34-G1-1-R2-P1_A11) VH: EVQLVESGGGLVQPGGSLKLSCAASGFTFNTYAMNWVRQAPGKGLEWVGRIRSKYNNYATYYADSVKDRFTISRDDSKNTAYLQMNSLKTEDTAVYYCVRHGNFGNSYVSWFAYWGQGTLVTVSS VL: QTVVTQEPSLTVSPGGTVTLTCRSSTGAVTTSNYANWFQQKPGQAPRGLIGGTNKRAPGTPARFSGSLLGGKAALTLSGAQPEDEAEYYCALWYDGWWVFGGGTKLTVL
205
3. IgG 1B6 (antibody, V domains shown, also called L3sp34-G1-1-R2-P1_B6) VH: EVQLVESGGGLVQPGGSLKLSCAASGFTFNTYAMNWVRQAPGKGLEWVGRIRSKYNNYATYYADSVKDRFTISRDDSKNTAYLQMNSLKTEDTAVYYCVRHGNFGNSYVSWFAYWGQGTLVTVSS VL: QTVVTQEPSLTVSPGGTVTLTCRSSTGAVTTSNYANWFQQKPGQAPRGLIGGTNKRAPGTPARFSGSLLGGKAALTLSGAQPEDEAEYYCALWYANRWVFGGGTKLTVL
231
